Data origin: patent US20030050307A1

Biological target: cloned human 5-HT1A-receptors (Homo sapiens, UniProt P08908)
Construct: expressed in transfected cells; host or cells: HeLa cells (HA7)
Sequence (P08908 whole entry): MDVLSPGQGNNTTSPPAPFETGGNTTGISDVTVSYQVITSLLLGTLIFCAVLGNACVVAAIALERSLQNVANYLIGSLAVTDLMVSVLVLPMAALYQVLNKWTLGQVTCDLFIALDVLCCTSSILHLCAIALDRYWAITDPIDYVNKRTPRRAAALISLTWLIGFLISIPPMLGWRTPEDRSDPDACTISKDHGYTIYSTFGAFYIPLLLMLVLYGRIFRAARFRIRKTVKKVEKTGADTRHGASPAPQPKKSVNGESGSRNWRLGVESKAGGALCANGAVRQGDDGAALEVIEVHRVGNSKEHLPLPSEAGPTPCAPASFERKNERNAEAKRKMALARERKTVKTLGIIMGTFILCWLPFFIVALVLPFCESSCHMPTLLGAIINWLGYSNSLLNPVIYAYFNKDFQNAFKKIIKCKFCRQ
Assay: Inhibition of 3H-5-CT binding to human 5-HT1A receptors
Details: at 50 nM; transfected HeLa cells (HA7); 15 minutes at 37° C., pH 7.7
Description: The affinity of the compounds of the invention to 5-HT1A receptors was determined by measuring the inhibition of binding of a radioactive ligand at 5-HT1A-receptors as described in the following test: […] By this method, the inhibition by drugs of the binding of the 5-HT1A-agonist ^3H-5-carboxamido tryptamine (^3H-5-CT) to cloned human 5-HT1A-receptors stably expressed in transfected HeLa cells (HA7) (Fargin, A. et al. J. Biol. Chem. 1989, 264, 14848) is determined in vitro. […]
Decide using inhibition at 0.05 µM: a value greater than or equal to 90% is fulfilled, a smaller one is not fulfilled.

[
  {
    "compound": "Cc1cccc(C)c1SCCCCN1CCN(c2cccc3[nH]ccc23)CC1 [Compound 5ab]",
    "targetOfAssay": "cloned human 5-HT1A-receptors (Homo sapiens, UniProt P08908)",
    "class": "not fulfilled"
  },
  {
    "compound": "Clc1ccc(SCCCN2CCN(c3cccc4[nH]ccc34)CC2)cc1Cl [Compound 5ag]",
    "targetOfAssay": "cloned human 5-HT1A-receptors (Homo sapiens, UniProt P08908)",
    "class": "fulfilled"
  },
  {
    "compound": "FC(F)(F)c1ccc(SCCCN2CCN(c3cccc4[nH]ccc34)CC2)cc1 [Compound 5aw]",
    "targetOfAssay": "cloned human 5-HT1A-receptors (Homo sapiens, UniProt P08908)",
    "class": "fulfilled"
  },
  {
    "compound": "Brc1cccc(SCCCN2CCN(c3cccc4[nH]ccc34)CC2)c1 [Compound 5ay]",
    "targetOfAssay": "cloned human 5-HT1A-receptors (Homo sapiens, UniProt P08908)",
    "class": "fulfilled"
  },
  {
    "compound": "Cc1ccc(SCCN2CCN(c3cccc4[nH]ccc34)CC2)c(C)c1 [Compound 5ac]",
    "targetOfAssay": "cloned human 5-HT1A-receptors (Homo sapiens, UniProt P08908)",
    "class": "not fulfilled"
  },
  {
    "compound": "FC(F)(F)c1ccccc1SCCCN1CCN(c2cccc3[nH]ccc23)CC1 [Compound 5af]",
    "targetOfAssay": "cloned human 5-HT1A-receptors (Homo sapiens, UniProt P08908)",
    "class": "fulfilled"
  },
  {
    "compound": "COc1ccc(SCCCCN2CCN(c3cccc4[nH]ccc34)CC2)cc1OC [Compound 5av]",
    "targetOfAssay": "cloned human 5-HT1A-receptors (Homo sapiens, UniProt P08908)",
    "class": "not fulfilled"
  },
  {
    "compound": "COc1ccccc1OCCCCN1CCN(c2cccc3[nH]ccc23)CC1 [Compound 5ba]",
    "targetOfAssay": "cloned human 5-HT1A-receptors (Homo sapiens, UniProt P08908)",
    "class": "not fulfilled"
  },
  {
    "compound": "Clc1cccc(SCCCCN2CCN(c3cccc4[nH]ccc34)CC2)c1 [Compound 5aq]",
    "targetOfAssay": "cloned human 5-HT1A-receptors (Homo sapiens, UniProt P08908)",
    "class": "fulfilled"
  },
  {
    "compound": "Clc1cccc(SCCN2CCN(c3cccc4[nH]ccc34)CC2)c1Cl [Compound 5ad]",
    "targetOfAssay": "cloned human 5-HT1A-receptors (Homo sapiens, UniProt P08908)",
    "class": "not fulfilled"
  },
  {
    "compound": "Clc1ccccc1SCCCCN1CCN(c2cccc3[nH]ccc23)CC1 [Compound 5ar]",
    "targetOfAssay": "cloned human 5-HT1A-receptors (Homo sapiens, UniProt P08908)",
    "class": "fulfilled"
  },
  {
    "compound": "Clc1ccc(Cl)c(OCCCCN2CCN(c3cccc4[nH]ccc34)CC2)c1 [Compound 5au]",
    "targetOfAssay": "cloned human 5-HT1A-receptors (Homo sapiens, UniProt P08908)",
    "class": "fulfilled"
  },
  {
    "compound": "Cc1ccc(SCCCN2CCN(c3cccc4[nH]ccc34)CC2)cc1C [Compound 5as]",
    "targetOfAssay": "cloned human 5-HT1A-receptors (Homo sapiens, UniProt P08908)",
    "class": "fulfilled"
  },
  {
    "compound": "Clc1cccc(SCCN2CCN(c3cccc4[nH]ccc34)CC2)c1 [Compound 5am]",
    "targetOfAssay": "cloned human 5-HT1A-receptors (Homo sapiens, UniProt P08908)",
    "class": "fulfilled"
  },
  {
    "compound": "CCc1ccccc1OCCCCN1CCN(c2cccc3[nH]ccc23)CC1 [Compound 5ai]",
    "targetOfAssay": "cloned human 5-HT1A-receptors (Homo sapiens, UniProt P08908)",
    "class": "fulfilled"
  }
]

---

Target: human cloned dopamine D4.2-receptors (Homo sapiens, UniProt P21917, DEL265-296)
Construct: expressed in transfected cells; host or cells: CHO cells
Sequence (P21917 with tags, fused parts or gaps DEL265-296): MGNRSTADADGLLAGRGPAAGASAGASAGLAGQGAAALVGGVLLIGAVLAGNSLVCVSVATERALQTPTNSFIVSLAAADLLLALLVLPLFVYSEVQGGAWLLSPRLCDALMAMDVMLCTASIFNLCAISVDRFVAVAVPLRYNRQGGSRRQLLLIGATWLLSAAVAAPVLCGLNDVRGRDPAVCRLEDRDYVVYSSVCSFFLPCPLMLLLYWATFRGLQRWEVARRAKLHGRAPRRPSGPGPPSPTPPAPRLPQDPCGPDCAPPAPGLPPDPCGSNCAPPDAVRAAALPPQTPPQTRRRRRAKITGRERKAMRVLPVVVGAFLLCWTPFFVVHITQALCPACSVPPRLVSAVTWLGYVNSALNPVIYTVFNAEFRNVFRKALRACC
Test: Inhibition of the binding of 3H-YM-09151-2 to human dopamine D4 receptors
Settings: at 100 nM; [3H]YM-09151-2 0.06 nM; CHO-cell membranes, human D4.2
Threshold rule: inhibition at 0.1 µM greater than or equal to 90% is fulfilled; below that, not fulfilled.

[
  {
    "smilesNotation": "Cc1cccc(C)c1SCCCCN1CCN(c2cccc3[nH]ccc23)CC1",
    "class": "fulfilled"
  },
  {
    "smilesNotation": "Clc1ccccc1SCCCCN1CCN(c2cccc3[nH]ccc23)CC1",
    "class": "fulfilled"
  },
  {
    "smilesNotation": "Brc1cccc(SCCCN2CCN(c3cccc4[nH]ccc34)CC2)c1",
    "class": "fulfilled"
  },
  {
    "smilesNotation": "Cc1ccc(Cl)c(OCCCCN2CCN(c3cccc4[nH]ccc34)CC2)c1",
    "class": "fulfilled"
  },
  {
    "smilesNotation": "Cc1cccc(C)c1OCCN1CCN(c2cccc3[nH]ccc23)CC1",
    "class": "not fulfilled"
  },
  {
    "smilesNotation": "Clc1ccccc1SCCN1CCN(c2cccc3[nH]ccc23)CC1",
    "class": "not fulfilled"
  },
  {
    "smilesNotation": "Clc1ccc(Cl)c(SCCN2CCN(c3cccc4[nH]ccc34)CC2)c1",
    "class": "fulfilled"
  }
]

---

Overview of recorded inhibition at 0.05 µM for various compounds
Target: cloned human 5-HT1A-receptors (Homo sapiens, UniProt P08908)
Construct: expressed in transfected cells; host or cells: HeLa cells (HA7)
Assay: Inhibition of 3H-5-CT binding to human 5-HT1A receptors
Conditions: at 50 nM; transfected HeLa cells (HA7); 15 minutes at 37° C., pH 7.7

[
  {
    "compound": "Clc1cccc(SCCCN2CCN(c3cccc4[nH]ccc34)CC2)c1 [Compound 5ao]",
    "inhibition at 0.05 µM / %": 100
  },
  {
    "compound": "CC(C)c1ccccc1SCCCN1CCN(c2cccc3[nH]ccc23)CC1 [Compound 5az]",
    "inhibition at 0.05 µM / %": 98
  },
  {
    "compound": "Clc1ccccc1SCCN1CCN(c2cccc3[nH]ccc23)CC1 [Compound 5an]",
    "inhibition at 0.05 µM / %": 91
  },
  {
    "compound": "Cc1ccc(Cl)c(OCCCCN2CCN(c3cccc4[nH]ccc34)CC2)c1 [Compound 5ak]",
    "inhibition at 0.05 µM / %": 91
  },
  {
    "compound": "Cc1ccc(OCCCCN2CCN(c3cccc4[nH]ccc34)CC2)c(C)c1 [Compound 5ah]",
    "inhibition at 0.05 µM / %": 86
  }
]

---

Below, each entry is listed alongside its reported inhibition at 0.05 µM.
Target: cloned human 5-HT1A-receptors (Homo sapiens)
Construct: expressed in transfected cells; host or cells: HeLa cells (HA7)
Assay: Inhibition of 3H-5-CT binding to human 5-HT1A receptors
Conditions: at 50 nM; transfected HeLa cells (HA7); 15 minutes at 37° C., pH 7.7
Method: The affinity of the compounds of the invention to 5-HT1A receptors was determined by measuring the inhibition of binding of a radioactive ligand at 5-HT1A-receptors as described in the following test: […] By this method, the inhibition by drugs of the binding of the 5-HT1A-agonist ^3H-5-carboxamido tryptamine (^3H-5-CT) to cloned human 5-HT1A-receptors stably expressed in transfected HeLa cells (HA7) (Fargin, A. et al. J. Biol. Chem. 1989, 264, 14848) is determined in vitro. […]
resultType: inhibition at 0.05 µM (%)

[
  {
    "molecule": "Cc1cccc(C)c1OCCN1CCN(c2cccc3[nH]ccc23)CC1 [Compound 5aa]",
    "resultType": "inhibition at 0.05 µM",
    "observedMeasurement": 78
  },
  {
    "molecule": "CC(C)c1ccccc1SCCCCN1CCN(c2cccc3[nH]ccc23)CC1 [Compound 5bb]",
    "resultType": "inhibition at 0.05 µM",
    "observedMeasurement": 94
  },
  {
    "molecule": "c1ccc(SCCCCN2CCN(c3cccc4[nH]ccc34)CC2)cc1 [Compound 5aj]",
    "resultType": "inhibition at 0.05 µM",
    "observedMeasurement": 77
  },
  {
    "molecule": "FC(F)(F)Oc1ccc(SCCCN2CCN(c3cccc4[nH]ccc34)CC2)cc1 [Compound 5ax]",
    "resultType": "inhibition at 0.05 µM",
    "observedMeasurement": 81
  }
]
